test system: MDA-MB-231; experiment: Growth inhibition of human MDA-MB-231 cells by SRB assay; assay type: functional
# Lookup of reported GI50 keyed by entry

Below, each entry is followed by its recorded GI50 result.
CCCCCCCCCCCCCCCCS(=O)(=O)N1CCC[N+](C)(C)CC1 : 590 nM
CCCCCCCCCCCCCC(=O)N1CCC[N+](C)(Cc2ccc(F)cc2)CC1 (centres undefined) : 1480 nM

What does the record list as GI50 for C=CC[N+]1(C)CCCN(C(=O)CCCCCCCCCCCCC)CC1 (centres undefined) ? 450 nM

What does the record list as GI50 for `CCCCCCCCCCCCS(=O)(=O)N1CCC[N+](C)(C)CC1` ? 840 nM

What does the record list as GI50 for `CCCCCCCCCCCCCCCCCC(=O)Nc1ccc([N+](C)(C)C)cc1` ? 4340 nM

What does the record list as GI50 for `CCCCCCCCCCCCCCS(=O)(=O)N1CCC[N+](C)(C)CC1` ? 830 nM

What does the record list as GI50 for `CCCCCCCCCCCCCCS(=O)(=O)Nc1ccc([N+](C)(C)C)cc1` ? 4540 nM

What does the record list as GI50 for `CCCCCCCCCCCCCCCC(=O)N1CCC[N+](C)(C)CC1` ? 940 nM

What does the record list as GI50 for `CCCCCCCCCCCCCC(=O)N1CCC[N+](C)(C)CC1` ? 980 nM

What does the record list as GI50 for `CCCCCCCCCCCCCCCCCC(=O)N1CCC[N+](C)(C)CC1` ? 670 nM
